From: paper PMC6494845

assay notes: Excitation and emission spectra
Format: physicochemical
measurement conditions: methanol, 2.5 μM
property label: emission (nm)
Provide the reading as a plain figure in nm.

Exercise: Given the entry CN(C)c1ccc(/C=C/C2=[O+][B-](F)(F)OC(/C=C/c3ccc(OCCOCCF)cc3)=C2)cc1 , report its measured emission.
Key: 650

----------
Kd for assorted compounds
tested system: Aβ(1–42) aggregates (Homo sapiens, UniProt P05067)
Construct: β-Amyloid(1–42) peptide was purchased from Bachem
Sequence (P05067 672-713): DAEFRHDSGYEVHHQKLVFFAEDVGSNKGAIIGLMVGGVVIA
assay notes: In vitro binding assay using Aβ(1–42) aggregates (intrinsic fluorescence of the ligands)
measurement conditions: Aβ(1–42) aggregates 1 μM, PBS, 37 °C, 1 h, ligand fluorescence
Provide the reading as a plain figure in nM.

In the examples that follow, each entry is paired with its recorded Kd.
[
  {
    "compound": "CNc1ccc(/C=C/C2=[O+][B-](F)(F)OC(/C=C/c3ccc(OCCOCCF)cc3)=C2)cc1 [Ligand 1]",
    "tested system": "Aβ(1–42) aggregates (Homo sapiens, UniProt P05067)",
    "Kd / nM": 33.8
  },
  {
    "compound": "COc1cc(/C=C/C2=[O+][B-](F)(F)OC(/C=C/c3ccc(OCCOCCF)c(OC)c3)=C2)ccc1O [Ligand 3]",
    "tested system": "Aβ(1–42) aggregates (Homo sapiens, UniProt P05067)",
    "Kd / nM": 138
  },
  {
    "compound": "CN(C)c1ccc(/C=C/C2=CC(/C=C/c3ccc(N(C)C)cc3)=[O+][B-](F)(F)O2)cc1 [CRANAD-2]",
    "tested system": "Aβ(1–42) aggregates (Homo sapiens, UniProt P05067)",
    "Kd / nM": 19.4
  },
  {
    "compound": "CN(C)c1ccc(/C=C/C2=[O+][B-](F)(F)OC(/C=C/c3ccc(OCC(O)CF)cc3)=C2)cc1 (centres unmarked) [Ligand 4]",
    "tested system": "Aβ(1–42) aggregates (Homo sapiens, UniProt P05067)",
    "Kd / nM": 15.3
  }
]

Now consider a different compound.
Exercise: Given the entry CN(C)c1ccc(/C=C/C2=[O+][B-](F)(F)OC(/C=C/c3ccc(OCCOCCF)cc3)=C2)cc1 [Ligand 2] , report its measured Kd.
Key: 19.7

----------
assay notes: In vitro stability in PBS and FBS (radio-TLC)
Type: in vitro ADME
measurement conditions: bovine, PBS and fetal bovine serum (50%); both PBS and FBS; read-out: % remaining radioligand (stable in both PBS and FBS)
property label: remaining at 120 min

Exercise: Given the entry CN(C)c1ccc(/C=C/C2=[O+][B-](F)(F)OC(/C=C/c3ccc(OCCOCC[18F])cc3)=C2)cc1 [[^18F]2] , report its measured remaining at 120 min.
Key: > 83%

----------
assay notes: In vitro stability in PBS and FBS (radio-TLC)
Format: in vitro ADME
measurement conditions: bovine, fetal bovine serum (50%); FBS (50% FBS in method), 37 °C, 120 min, radio-TLC; read-out: % remaining radioligand
property label: remaining at 2 h
Could you kindly put the unit after your number?

Exercise: Given the entry CN(C)c1ccc(/C=C/C2=[O+][B-](F)(F)OC(/C=C/c3ccc(OCCOCC[18F])cc3)=C2)cc1 [[^18F]2] , report its measured remaining at 2 h.
Key: 83%

----------
assay notes: Partition coefficient measurement (1-octanol/water)
Type: physicochemical
measurement conditions: 1-octanol and water
Method: Difluoroboron complex formation lowered the lipophilicity of the curcumin derivative based on TLC analysis. Partition coefficient of [^18F]2 was measured according to the method described in the literature. […] The 1-octanol and aqueous layers were separated out, and a 500-μL aliquot of each layer was removed and measured using a gamma counter. […] The log P is expressed as the logarithm of the ratio of the counts per minute of 1-octanol versus that of water.
property label: logP
// no unit, no text: just the number

Exercise: Given the entry CN(C)c1ccc(/C=C/C2=[O+][B-](F)(F)OC(/C=C/c3ccc(OCCOCC[18F])cc3)=C2)cc1 [[^18F]2] , report its measured logP.
Key: 2.58
